Cited source: the supplement of paper PMC9170038

# System: MS2 coat protein
# protocol-summary: apparent KD of MS2 coat protein; designed switch direction (-1 OFF switch, 1 ON switch): 1; higher = weaker reporter binding
# test-settings: input ligand: none
quantity-kind: apparent KD of MS2 coat protein (nM)
State the answer as a number, implicitly in nM.

sequence-chain	apparent KD of MS2 coat protein / nM
GAGUGACGAUUAGGAUAUACAGUGAUAAUGAUAGUAGAAGGAAUUGACAUGAGGAUCACCCAUGUAGGACUAAUCCAGAGAGAG [Parity 29 - Jieux - Same State NG 1] (Eterna round: R96, puzzle: Same State NG 1)	57.8

Challenge: Missing value: apparent KD of MS2 coat protein, MS2 coat protein, entry UGAAUAGUUACAGGAUAUGAGCCGUAAAUUGGGUCAGAAGGGUGGGUGUUUUGCGCUGUGUGCUACAUGAGGAUCACCCAUGUU [SameState NG1 #33] (Eterna round: R96, puzzle: Same State NG 1) . Fill in?
Response given: 240

Challenge: Missing value: apparent KD of MS2 coat protein, MS2 coat protein, entry UCUGCUGCCCAAGGAUAUCAGCGUGGUAUCCACAUGAGGAUCACCCAUGUAGGUCAGCACUACCCUGAGAAGGUGGGAAAAUAA [Eternabot solution 2] (Eterna round: R96, puzzle: Same State NG 2) . Fill in?
Response given: 15.1

Challenge: Missing value: apparent KD of MS2 coat protein, MS2 coat protein, entry UUAUCUCUUACAUGAGGAUCACCCAUGUUUUUAUGUCUUAGACAGGAUAUAGUAGUCUCGUAUUACUAGAAGGGUCUUUUUAUU [JR_SSNG3_Sub020] (Eterna round: R96, puzzle: Same State NG 3) . Fill in?
Response given: 26.4

* * *

# Test system: MS2 coat protein
# protocol-summary: apparent KD of MS2 coat protein; designed switch direction (-1 OFF switch, 1 ON switch): -1; higher = weaker reporter binding
# test-settings: input ligand: microRNA oligo, concentration not stated
Would you please tag the item y when its apparent KD of MS2 coat protein is 20 nM or above, and n when it is below?

sequence-chain	assigned-category
UAUAUAUAGUAAGGAUAUGUAUAUAAUUUAUAAACAGAAGGUACUGACAUGAGGAUCACCCAUGUUUUAGUGUGGGCAUGUAGA [JMF's solution 55] (Eterna round: R96, puzzle: Exclusion NG 1)	y
CCUCUACAUGAGGAUCACCCAUGUGAGGAUAUAAGAUUGCGAAUUCCGCACUACGGUCUUAGAAGGCGCGUGGA [Riarve] (Eterna round: R96, puzzle: Exclusion 1)	n

# ---- query sequence ----
Challenge: Please check the record GCCGGGCGUGUAGGAUAUGGCCGGCGGUGCCGGCCAGAAGGACAUGAGGAUCACCCAUGUGCCGGCCUUGGGCCGGCGCCCGGC [-51, -48 kcal and 14% A] (Eterna round: R96, puzzle: Exclusion NG 1) and state if its apparent KD of MS2 coat protein is at or above 20 nM.
Response given: n

* * *

apparent KD of K4 kissing-loop reporter: recorded values
# Test system: K4 kissing-loop RNA reporter;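 further: bound reporter read as fluorescence of individual clusters on recovered sequencing chips by microscopy, with normalized cluster intensities fitted with a binding model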
# protocol-summary: apparent KD of K4 kissing-loop reporter; higher = weaker reporter binding
# test-settings: Eterna round: R107; input ligand: tryptophan 2.4 mM
State the answer as a number, implicitly in µM.

In [3]: df
Out[3]:
                             sequence_chain  unit_of_measure  reported
0  AAAAGAAAGUCGGCCGCCACUCAACGCAGUGAUGUUGCAAGACAGAAGAGCAGUGAUGUUGCCCAGAGGACCGGGACACAAGGCC [Same State Typtophan B GF 3]               µM     0.309

Challenge: Entry GGAUAGGAGAGAGGAUAUGGGCUAGGCAAGAAUAACUUGUCUAGCAAAUCCAUGAGGAGUGAUGUUCCAGAAGGCUCUCCUAUCG [FmnBX 1 G9+C77] has what apparent KD of K4 kissing-loop reporter?
Response given: 0.139

Challenge: Entry AAGUGAUGUUGUAGUGAUGUUGUGAUGUUGCAGGAUAUAUAGUGAUGUAGAAGGGUAUGUGCAGUGUUGUUGUUUGAGUGUUCAU [dttyumullin] has what apparent KD of K4 kissing-loop reporter?
Response given: 0.0684
